tested on: CYPSE (Flatsedge); assay: Postemergence weed control under flooded paddy conditions; format: in vivo, Cyperus serotinus; details: rate 0.2500 kg/ha, postemergence weeds, 3-4 weeks after treatment
Could you label it condition met if measured Herbicidal rating CYPSE is 3 or higher, and condition not met otherwise?

CN1C(=O)CSC1=Nc1cc(N2C(=O)C3=C(CCCC3)C2=O)c(F)cc1Cl [Compound 1]; condition not met
CC1SC(=Nc2cc(-n3c(=O)cc(C(F)(F)F)n(C)c3=O)c(F)cc2Cl)N(C)C1=O (stereo not drawn) [Compound 9]; condition met
CCOC(=O)CN1C(=O)C(CC(=O)OCc2ccccc2)OC1=Nc1cc(-n2c(=O)cc(C(F)(F)F)n(C)c2=O)c(F)cc1Cl (stereo not drawn) [Compound 40]; condition met
CN1C(=O)C(F)SC1=Nc1cc(N2C(=O)C3=C(CCCC3)C2=O)c(F)cc1Cl (stereo not drawn) [Compound 5]; condition not met

Problem: Quick check, Herbicidal rating CYPSE >= 3? CCOC(=O)COc1ccccc1CC1S/C(=N/c2cc(-n3c(=O)cc(C(F)(F)F)n(C)c3=O)c(F)cc2Cl)N(CC(=O)OCC)C1=O (stereo not drawn) [Compound 42]
Solution: condition not met

Problem: Quick check, Herbicidal rating CYPSE >= 3? COC(=O)CN1C(=O)CSC1=Nc1cc(-n2c(=O)cc(C(F)(F)F)n(C)c2=O)c(F)cc1Cl [Compound 17]
Solution: condition met

Problem: Quick check, Herbicidal rating CYPSE >= 3? CCC1SC(=Nc2cc(-n3c(=O)cc(C(F)(F)F)n(C)c3=O)c(F)cc2Cl)N(C)C1=O (stereo not drawn) [Compound 10]
Solution: condition not met

Problem: Quick check, Herbicidal rating CYPSE >= 3? C#CCOC(=O)CC1SC(=Nc2cc(-n3c(=O)cc(C(F)(F)F)n(C)c3=O)c(F)cc2Cl)N(CC(=O)OCC)C1=O (stereo not drawn) [Compound 59]
Solution: condition met
